system: human AR (androgen receptor) (Homo sapiens)
Sequence (P10275 1-920): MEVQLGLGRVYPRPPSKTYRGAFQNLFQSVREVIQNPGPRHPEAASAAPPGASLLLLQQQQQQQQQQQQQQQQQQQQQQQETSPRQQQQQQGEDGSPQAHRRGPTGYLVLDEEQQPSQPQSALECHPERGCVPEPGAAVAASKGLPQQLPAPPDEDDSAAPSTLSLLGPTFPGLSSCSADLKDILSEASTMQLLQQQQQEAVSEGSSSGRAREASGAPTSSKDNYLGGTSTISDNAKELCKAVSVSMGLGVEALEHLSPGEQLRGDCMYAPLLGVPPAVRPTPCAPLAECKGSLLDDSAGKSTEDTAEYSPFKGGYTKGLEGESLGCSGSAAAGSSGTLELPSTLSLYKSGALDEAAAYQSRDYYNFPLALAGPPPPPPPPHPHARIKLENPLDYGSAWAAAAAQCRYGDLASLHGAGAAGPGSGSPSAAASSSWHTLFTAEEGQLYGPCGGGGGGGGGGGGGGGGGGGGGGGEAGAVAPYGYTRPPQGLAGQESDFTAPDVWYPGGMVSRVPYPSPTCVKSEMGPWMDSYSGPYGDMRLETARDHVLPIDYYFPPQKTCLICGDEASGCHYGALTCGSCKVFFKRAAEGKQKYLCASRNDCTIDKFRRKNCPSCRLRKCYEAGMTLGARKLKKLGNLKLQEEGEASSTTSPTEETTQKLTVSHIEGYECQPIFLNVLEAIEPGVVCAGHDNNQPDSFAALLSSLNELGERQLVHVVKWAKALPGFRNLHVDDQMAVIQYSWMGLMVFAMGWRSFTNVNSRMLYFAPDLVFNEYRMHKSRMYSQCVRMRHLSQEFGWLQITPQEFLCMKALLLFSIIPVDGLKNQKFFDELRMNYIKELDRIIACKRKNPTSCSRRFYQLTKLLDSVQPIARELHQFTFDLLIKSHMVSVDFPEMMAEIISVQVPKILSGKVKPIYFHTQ
experiment: AR competition binding assay (HEK293 cell lysate)
experimental_context: 0.36 nM 3H-methyltrienolone, 293-AR lysate
pKi: −log10 of the molar value.
Below is a list of entries, each paired with its recorded pKi value.

| compound | pKi |
| --- | --- |
| CS(=O)(=O)Nc1ccc2c(-c3ccc(C#N)cc3)cn(C3CCCC3)c2c1 [Example 63] | < 6.00 |
| CCOC(=O)c1ccc(-c2cn(C(C)C)c3cc(NS(C)(=O)=O)ccc23)cc1 [Example 74] | < 6.00 |
| CC(C)n1cc(-c2ccc(C(N)=O)cc2)c2ccc(NS(C)(=O)=O)cc21 [Example 87] | < 6.00 |

Next, consider the following compound.
// pKi lookup, compound = CC(C)n1cc(-c2ccc3sccc3c2)c2ccc(NS(C)(=O)=O)cc21 [Example 95] , result: 6.00 to 6.30

* * *

Tested on: uterine endometrial transformation
experiment: McPhail Assay
Assay type: in vivo, New Zealand White Rabbits
experimental_context: rabbits, 30 mpk, compound alone on days 7-12, agonist mode

| molecule | McPhail Index** @ 30 mpk (Agonist Mode) |
| --- | --- |
| CC(C)n1cc(-c2ccc(C#N)nc2)c2ccc(NS(C)(=O)=O)cc21 [Example 48] | + (+ <2) |
| CC(C)n1cc(-c2ccc([N+](=O)[O-])cc2)c2ccc(NS(C)(=O)=O)cc21 [Example 197] | + (+ <2) |
| CC(C)n1cc(-c2ccc(C#N)c(Cl)c2)c2ccc(NS(C)(=O)=O)cc21 [Example 50] | + (+ <2) |
